Literature survey of pIC50 (system: Cathepsin K (Homo sapiens, UniProt P43235)).
Remember, pIC50 is on a log scale: it is -log10 of the molar concentration.

Consider the reported pIC50 for these compounds:
CC(C)(C)Cn1c2nc(C#N)ncc2c(=O)n1Cc1cccs1
8.54
N#CC1(NC(=O)C2(NC(=O)c3cc4ccc(-c5ccc(C6(O)COC6)cc5)cc4o3)CCCCCC2)CC1
9.14
COc1cc(-c2ccc3cc(C(=O)NC4(C(=O)NC5(C#N)CC5)CCC(F)(F)CC4)oc3c2)ccc1OC(F)F
8.62
N#CC1(NC(=O)C2(NC(=O)c3cc4ccc(-c5ccc(-n6cncn6)cc5)cc4o3)CCC(F)(F)CC2)CC1
8.74
NC(=S)NN=C(c1cccc(O)c1)c1cccc(Br)c1
7.28

Field: pIC50 (Cathepsin K (Homo sapiens, UniProt P43235)). Entry: CS(=O)(=O)c1ccc(-c2ccc3cc(C(=O)NC4(C(=O)NC5(C#N)CC5)CCCCC4)oc3n2)cc1 8.57

Param readout= pIC50; system= Cathepsin K (Homo sapiens, UniProt P43235); entry= COc1ccc(C#N)cc1-c1cnc(C(=O)N[C@@H]2C[C@@H](C)N(C#N)C2)o1 ; returns value. 3.78
